Catalogue of molecules with associated Kd
biological target: Serine/threonine-protein kinase Sgk2 (Homo sapiens); test: Binding affinity to recombinant full-length N-terminal His-FLAG-tagged SGK2 (unknown origin) expressed in baculovirus infected Sf9 insect cells incubated for 1 hr by TR-FRET assay
Sequence (Q9HBY8 whole entry): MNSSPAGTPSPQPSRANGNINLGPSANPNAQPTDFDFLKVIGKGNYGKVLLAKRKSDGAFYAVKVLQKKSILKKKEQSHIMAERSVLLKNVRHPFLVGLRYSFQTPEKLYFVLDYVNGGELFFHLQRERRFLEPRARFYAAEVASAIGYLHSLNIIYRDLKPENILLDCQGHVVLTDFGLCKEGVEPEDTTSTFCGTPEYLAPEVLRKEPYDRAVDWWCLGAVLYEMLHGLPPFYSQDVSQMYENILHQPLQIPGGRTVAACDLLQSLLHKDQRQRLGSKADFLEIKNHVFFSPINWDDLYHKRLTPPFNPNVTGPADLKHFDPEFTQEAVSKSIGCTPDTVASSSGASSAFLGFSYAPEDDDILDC
Form entry: value (nM) — number only.

SMILES_INPUT: CO[C@@H]1[C@H](NCCOCCOCCOCCNC(=O)CCC2=[N+]3C(=Cc4c(C)cc(C)n4[B-]3(F)F)C=C2)C[C@H]2O[C@]1(C)n1c3ccccc3c3c4c(c5c6ccccc6n2c5c31)C(=O)NC4
Kd, nM: 1220

// next entry
What measured Kd goes with `CO[C@@H]1[C@H](N(C)CCOCCOCCOCCNC(=O)CCC2=[N+]3C(=Cc4c(C)cc(C)n4[B-]3(F)F)C=C2)C[C@H]2O[C@]1(C)n1c3ccccc3c3c4c(c5c6ccccc6n2c5c31)C(=O)NC4` ? 1770
